Taken from paper PMC4266452.

# Assay Text: Plasma concentration (Cmax) during the TQT study, total and calculated free
# Type: in vivo, human
# Condition Notes: Cmax high; calculated with PPB and molecular weight
Output 1.0 for Cmax FREE not less than 0.08 µM; output 0.0 otherwise.

Observe how each entry below is paired with its result.
1) Cc1nc(Nc2ncc(C(=O)Nc3c(C)cccc3Cl)s2)cc(N2CCN(CCO)CC2)n1.O    0.0
2) CCN(CC)CCNC(=O)c1c(C)[nH]c(/C=C2\C(=O)Nc3ccc(F)cc32)c1C    0.0
3) N[C@@H](CC(=O)N1CCn2c(nnc2C(F)(F)F)C1)Cc1cc(F)c(F)cc1F    1.0
4) CCCc1nn(C)c2c(=O)[nH]c(-c3cc(S(=O)(=O)N4CCN(C)CC4)ccc3OCC)nc12    1.0
5) COc1cc2nc(N(C)CCCNC(=O)C3CCCO3)nc(N)c2cc1OC (centres unmarked)    0.0
6) C[C@H](Cc1cc2c(c(C(N)=O)c1)N(CCCO)CC2)NCCOc1ccccc1OCC(F)(F)F    0.0

Now examine the next entry.
Would you say `Cc1cc(C#N)cc(C)c1Oc1nc(Nc2ccc(C#N)cc2)nc(N)c1Br` shows Cmax FREE at minimum 0.08 µM?
0.0

###

Measured Cmax FREE by item
# Assay Text: Plasma concentration (Cmax) during the TQT study, total and calculated free
# Format: in vivo, human
# Condition Notes: Cmax low; calculated with PPB and molecular weight
Give just the numeric value; nM need not be written.

The examples below pair each entry with its known result.
1) CN(C)CC(c1ccc(O)cc1)C1(O)CCCCC1 (centres unmarked)    1250.93
2) C[C@@H](O)[C@H]1C(=O)N2C(C(=O)O)=C(S[C@@H]3CN[C@H](CNS(N)(=O)=O)C3)[C@H](C)[C@H]12    45894.9
3) Cc1cn(-c2cc(NC(=O)c3ccc(C)c(Nc4nccc(-c5cccnc5)n4)c3)cc(C(F)(F)F)c2)cn1    83.861

Which Cmax FREE value is on record for COC[C@@H](NC(C)=O)C(=O)NCc1ccccc1 [Lacosamide] ?
41311.4

// query Cmax FREE value for entry `Cc1c(O)cccc1C(=O)N[C@@H](CSc1ccccc1)[C@H](O)CN1C[C@H]2CCCC[C@H]2C[C@H]1C(=O)NC(C)(C)C`
61.3959

###

# Assay Text: Plasma concentration (Cmax) during the TQT study, total and calculated free
# Type: in vivo, human
# Condition Notes: Cmax high; calculated with PPB
Test Readout: Cmax FREE

Please review the following examples before continuing.
1) Cc1nc2n(c(=O)c1CCN1CCC(c3noc4cc(F)ccc34)CC1)CCCC2O (stereo not shown)    30.51 ng/mL
2) Cc1ccc(O)c([C@H](CCN(C(C)C)C(C)C)c2ccccc2)c1    0.703 ng/mL
3) CN(C)CC(c1ccc(O)cc1)C1(O)CCCCC1 (stereo not shown)    1027.67 ng/mL

Sample `CCCc1nn(C)c2c(=O)[nH]c(-c3cc(S(=O)(=O)N4CCN(C)CC4)ccc3OCC)nc12` — what was its Cmax FREE?
60.76 ng/mL

###

# Assay Text: Plasma concentration (Cmax) during the TQT study, total and calculated free
# Assay type: in vivo, human
# Condition Notes: Cmax low; calculated with PPB
Each record here notes measured Cmax FREE.
Just the number please, in ng/mL, no unit attached.

1. COc1c(N2C[C@@H]3CCCN[C@@H]3C2)c(F)cc2c(=O)c(C(=O)O)cn(C3CC3)c12    1257.030
2. N[C@@H](CC(=O)N1CCn2c(nnc2C(F)(F)F)C1)Cc1cc(F)c(F)cc1F    348.6
3. CCCc1nc(C)c2c(=O)nc(-c3cc(S(=O)(=O)N4CCN(CC)CC4)ccc3OCC)[nH]n12    0.442

Fill in: Cmax FREE of `CCCc1nn(C)c2c(=O)[nH]c(-c3cc(S(=O)(=O)N4CCN(C)CC4)ccc3OCC)nc12` is ___
7.12

###

# Experimental System: UniProt:Q12809
# Assay Text: IonWorks Quattro hERG screen (AstraZeneca, Q)
Test Readout: pIC50
// field semantics: pIC50 = negative decimal log of concentration (mol/L)

Use these answered entries as a reference point.
1) COC(c1ccccc1)(c1ccccc1)[C@H](Oc1nc(C)cc(C)n1)C(=O)O    2.10
2) C[C@H]1CN(C[C@H](Cc2ccccc2)C(=O)NCC(=O)O)CC[C@@]1(C)c1cccc(O)c1    1.20

Lab request: please report pIC50 under test system UniProt:Q12809 for `Cc1cn([C@@H]2C[C@@H](O)[C@H](CO)O2)c(=O)[nH]c1=O`
2.30

Provide value of pIC50 for this record tested with UniProt:Q12809: `Cc1c(O)cccc1C(=O)N[C@@H](CSc1ccccc1)[C@H](O)CN1C[C@H]2CCCC[C@H]2C[C@H]1C(=O)NC(C)(C)C`
1.50

GET /values?readout=pIC50&system=UniProt:Q12809&item= CN(C)CC(c1ccc(O)cc1)C1(O)CCCCC1 (centres unmarked)
1.70

###

# Experimental System: CaV1.2 (Homo sapiens)
# Assay Text: IonWorks Quattro CaV1.2 screen (AstraZeneca, Q)
# Condition Notes: IonWorks Quattro; −log10 of IC50 in Molar; Hill n = 1; 0.0 = pIC50 ≤ 0 fitted
Test Readout: CaV1.2 pIC50 (Q)
No unit in the answer, only the number.

Examples with answers:
1. C[C@H](Cc1cc2c(c(C(N)=O)c1)N(CCCO)CC2)NCCOc1ccccc1OCC(F)(F)F [Silodosin]    3.1
2. O=C(O)c1ccc(-n2nc(-c3ccccc3O)nc2-c2ccccc2O)cc1 [Deferasirox]    3.0
3. COC(c1ccccc1)(c1ccccc1)[C@H](Oc1nc(C)cc(C)n1)C(=O)O [Ambrisentan]    2.6
4. C[C@H]1CN(C[C@H](Cc2ccccc2)C(=O)NCC(=O)O)CC[C@@]1(C)c1cccc(O)c1 [Alvimopan]    5.3
5. N[C@@H](CC(=O)N1CCn2c(nnc2C(F)(F)F)C1)Cc1cc(F)c(F)cc1F [Sitagliptin]    1.0

Item CCN(CC)CCNC(=O)c1c(C)[nH]c(/C=C2\C(=O)Nc3ccc(F)cc32)c1C [Sunitinib] has what recorded CaV1.2 pIC50 (Q)?
4.1

###

# Assay Text: Plasma concentration (Cmax) during the TQT study, total and calculated free
# Type: in vivo, human
# Condition Notes: Cmax low; calculated with PPB
Test Readout: Cmax FREE (ng/mL)
Only the number, expressed in ng/mL, is required.

Here is how some compounds turned out for Cmax FREE.
1) O=C1c2cccc3c2[C@H](CCC3)CN1[C@@H]1CN2CCC1CC2 [Palonosetron]    0.9686
2) Cc1nc(Nc2ncc(C(=O)Nc3c(C)cccc3Cl)s2)cc(N2CCN(CCO)CC2)n1.O [Dasatinib]    4
3) Cc1cc(C#N)cc(C)c1Oc1nc(Nc2ccc(C#N)cc2)nc(N)c1Br [Etravirine]    0.921
4) COc1cc2nc(N(C)CCCNC(=O)C3CCCO3)nc(N)c2cc1OC (centres unmarked) [Alfuzosin]    0.80
5) CS(=O)(=O)CCNCc1ccc(-c2ccc3ncnc(Nc4ccc(OCc5cccc(F)c5)c(Cl)c4)c3c2)o1 [Lapatinib]    13.890
6) Cc1cn(-c2cc(NC(=O)c3ccc(C)c(Nc4nccc(-c5cccnc5)n4)c3)cc(C(F)(F)F)c2)cn1 [Nilotinib]    45.200
7) Cc1nc2n(c(=O)c1CCN1CCC(c3noc4cc(F)ccc34)CC1)CCCC2O (centres unmarked) [Paliperidone]    9.45

Need Cmax FREE of C[C@H](Cc1cc2c(c(C(N)=O)c1)N(CCCO)CC2)NCCOc1ccccc1OCC(F)(F)F [Silodosin] , thanks.
2.125

###

# Experimental System: CaV1.2 (Homo sapiens, UniProt Q13936)
# Sequence (Q13936 whole entry): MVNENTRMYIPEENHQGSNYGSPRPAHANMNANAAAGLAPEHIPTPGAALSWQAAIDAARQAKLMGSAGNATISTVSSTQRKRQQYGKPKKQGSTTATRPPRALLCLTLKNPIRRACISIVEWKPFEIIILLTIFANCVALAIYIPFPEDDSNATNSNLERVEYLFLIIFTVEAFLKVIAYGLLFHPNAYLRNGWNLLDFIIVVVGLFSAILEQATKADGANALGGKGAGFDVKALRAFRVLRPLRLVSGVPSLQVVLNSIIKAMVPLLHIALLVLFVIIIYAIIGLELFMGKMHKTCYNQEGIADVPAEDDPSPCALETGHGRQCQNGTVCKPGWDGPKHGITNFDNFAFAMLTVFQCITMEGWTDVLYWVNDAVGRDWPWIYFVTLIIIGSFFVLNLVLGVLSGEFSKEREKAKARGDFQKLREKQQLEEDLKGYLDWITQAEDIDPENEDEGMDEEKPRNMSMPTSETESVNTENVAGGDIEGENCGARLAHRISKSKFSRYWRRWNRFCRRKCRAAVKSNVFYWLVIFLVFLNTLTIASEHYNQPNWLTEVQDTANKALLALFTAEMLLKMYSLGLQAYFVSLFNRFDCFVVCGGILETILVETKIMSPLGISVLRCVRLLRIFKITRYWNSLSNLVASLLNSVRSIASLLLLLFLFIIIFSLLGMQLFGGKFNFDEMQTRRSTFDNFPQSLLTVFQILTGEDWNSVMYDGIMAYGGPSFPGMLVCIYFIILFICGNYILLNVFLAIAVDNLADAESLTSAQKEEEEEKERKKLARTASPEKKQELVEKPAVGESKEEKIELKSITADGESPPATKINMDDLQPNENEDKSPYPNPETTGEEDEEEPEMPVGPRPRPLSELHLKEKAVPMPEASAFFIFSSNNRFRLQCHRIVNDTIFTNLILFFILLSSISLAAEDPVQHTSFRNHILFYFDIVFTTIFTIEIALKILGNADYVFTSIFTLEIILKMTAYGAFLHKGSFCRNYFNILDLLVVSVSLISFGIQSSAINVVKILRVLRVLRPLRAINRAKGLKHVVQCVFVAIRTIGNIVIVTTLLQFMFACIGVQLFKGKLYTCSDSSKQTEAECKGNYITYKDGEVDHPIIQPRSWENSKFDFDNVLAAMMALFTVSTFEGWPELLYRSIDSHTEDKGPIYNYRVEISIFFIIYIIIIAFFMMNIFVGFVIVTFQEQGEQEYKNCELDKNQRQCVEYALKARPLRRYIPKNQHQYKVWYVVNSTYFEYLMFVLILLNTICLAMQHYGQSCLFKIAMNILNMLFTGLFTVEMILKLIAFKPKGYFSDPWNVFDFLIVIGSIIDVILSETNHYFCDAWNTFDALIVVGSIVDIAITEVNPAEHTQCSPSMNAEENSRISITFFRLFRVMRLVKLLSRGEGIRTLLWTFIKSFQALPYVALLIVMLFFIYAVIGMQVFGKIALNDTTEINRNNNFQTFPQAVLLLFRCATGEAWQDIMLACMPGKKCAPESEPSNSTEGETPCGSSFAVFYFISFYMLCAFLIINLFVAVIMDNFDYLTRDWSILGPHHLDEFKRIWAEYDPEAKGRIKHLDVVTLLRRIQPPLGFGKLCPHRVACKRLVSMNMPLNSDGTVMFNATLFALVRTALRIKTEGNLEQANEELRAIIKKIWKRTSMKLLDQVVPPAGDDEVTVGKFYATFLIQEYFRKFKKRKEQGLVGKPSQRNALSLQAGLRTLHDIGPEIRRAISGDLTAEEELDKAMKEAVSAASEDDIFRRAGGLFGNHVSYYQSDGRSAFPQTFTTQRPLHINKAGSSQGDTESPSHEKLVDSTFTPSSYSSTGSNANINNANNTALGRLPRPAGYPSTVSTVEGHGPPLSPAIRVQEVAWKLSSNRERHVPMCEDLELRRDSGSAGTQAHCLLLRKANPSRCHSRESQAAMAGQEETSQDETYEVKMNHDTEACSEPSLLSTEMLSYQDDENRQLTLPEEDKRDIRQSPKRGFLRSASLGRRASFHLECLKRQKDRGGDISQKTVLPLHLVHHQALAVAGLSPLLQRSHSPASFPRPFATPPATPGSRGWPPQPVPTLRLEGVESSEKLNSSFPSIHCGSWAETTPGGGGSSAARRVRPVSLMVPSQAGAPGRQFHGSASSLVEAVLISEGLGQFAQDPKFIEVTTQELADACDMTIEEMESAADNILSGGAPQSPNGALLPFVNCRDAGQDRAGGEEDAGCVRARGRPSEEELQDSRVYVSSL
# Sequence (Q08289 whole entry partner): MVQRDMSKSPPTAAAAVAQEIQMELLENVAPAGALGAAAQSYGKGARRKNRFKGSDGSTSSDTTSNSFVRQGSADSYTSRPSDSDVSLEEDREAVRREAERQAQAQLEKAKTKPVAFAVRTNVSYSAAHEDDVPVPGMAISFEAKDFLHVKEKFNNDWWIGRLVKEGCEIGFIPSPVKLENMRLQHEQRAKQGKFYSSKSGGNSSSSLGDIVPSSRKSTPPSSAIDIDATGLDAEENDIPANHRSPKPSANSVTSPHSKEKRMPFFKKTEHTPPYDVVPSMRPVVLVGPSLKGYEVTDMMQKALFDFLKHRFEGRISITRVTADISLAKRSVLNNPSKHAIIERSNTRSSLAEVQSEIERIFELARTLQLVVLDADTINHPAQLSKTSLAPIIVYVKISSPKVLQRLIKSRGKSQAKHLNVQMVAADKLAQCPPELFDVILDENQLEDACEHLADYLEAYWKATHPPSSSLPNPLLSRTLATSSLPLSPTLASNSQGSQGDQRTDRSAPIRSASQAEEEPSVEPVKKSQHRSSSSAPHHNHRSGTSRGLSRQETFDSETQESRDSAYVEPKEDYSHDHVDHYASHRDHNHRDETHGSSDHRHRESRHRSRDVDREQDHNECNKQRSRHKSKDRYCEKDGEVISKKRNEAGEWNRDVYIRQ
# Sequence (P54289 25-956 partner limits assumed): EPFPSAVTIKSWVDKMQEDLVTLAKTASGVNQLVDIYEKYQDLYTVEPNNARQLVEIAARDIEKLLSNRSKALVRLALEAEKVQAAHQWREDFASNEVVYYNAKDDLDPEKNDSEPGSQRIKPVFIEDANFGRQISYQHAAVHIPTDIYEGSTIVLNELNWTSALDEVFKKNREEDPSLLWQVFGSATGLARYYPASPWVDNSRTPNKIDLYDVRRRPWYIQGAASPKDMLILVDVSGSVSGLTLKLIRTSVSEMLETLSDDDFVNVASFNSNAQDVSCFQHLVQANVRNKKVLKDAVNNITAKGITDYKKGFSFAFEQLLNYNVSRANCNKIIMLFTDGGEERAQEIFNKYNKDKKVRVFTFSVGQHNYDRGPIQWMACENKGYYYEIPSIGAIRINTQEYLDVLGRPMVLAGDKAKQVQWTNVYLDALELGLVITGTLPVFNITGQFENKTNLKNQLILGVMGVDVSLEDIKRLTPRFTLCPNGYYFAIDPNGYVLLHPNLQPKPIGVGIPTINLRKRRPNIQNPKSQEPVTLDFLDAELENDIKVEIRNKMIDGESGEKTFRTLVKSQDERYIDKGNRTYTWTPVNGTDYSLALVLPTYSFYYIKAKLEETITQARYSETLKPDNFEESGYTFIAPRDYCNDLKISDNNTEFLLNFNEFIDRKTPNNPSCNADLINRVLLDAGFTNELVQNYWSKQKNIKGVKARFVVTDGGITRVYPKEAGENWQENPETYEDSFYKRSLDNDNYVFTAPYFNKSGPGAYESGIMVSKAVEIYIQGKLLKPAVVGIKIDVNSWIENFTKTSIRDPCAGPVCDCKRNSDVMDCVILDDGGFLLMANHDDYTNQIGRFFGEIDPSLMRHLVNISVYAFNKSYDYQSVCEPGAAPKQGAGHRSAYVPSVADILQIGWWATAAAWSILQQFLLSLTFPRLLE
# Sequence (P54289 957-1103 partner limits assumed): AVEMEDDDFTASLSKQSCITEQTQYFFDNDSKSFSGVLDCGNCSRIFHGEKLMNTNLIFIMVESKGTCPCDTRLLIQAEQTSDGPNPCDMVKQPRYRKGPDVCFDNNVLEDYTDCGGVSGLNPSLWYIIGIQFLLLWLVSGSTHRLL
# Assay Text: IonWorks Quattro CaV1.2 screen (AstraZeneca, Q)
Reported CaV1.2 pIC50 (Q) is given for each of the following molecules.
Lab note: record the figure alone, no unit after it.

1. Nc1nnc(-c2cccc(Cl)c2Cl)c(N)n1 [Lamotrigine]    2.8
2. CS(=O)(=O)CCNCc1ccc(-c2ccc3ncnc(Nc4ccc(OCc5cccc(F)c5)c(Cl)c4)c3c2)o1 [Lapatinib]    2.7
3. Cc1nc2n(c(=O)c1CCN1CCC(c3noc4cc(F)ccc34)CC1)CCCC2O (centres unmarked) [Paliperidone]    3.4

Record C[C@@H](O)[C@H]1C(=O)N2C(C(=O)O)=C(S[C@@H]3CN[C@H](CNS(N)(=O)=O)C3)[C@H](C)[C@H]12 [Doripenem] : what is its CaV1.2 pIC50 (Q) with CaV1.2 (Homo sapiens, UniProt Q13936)?
5.7

Form field - read-out: CaV1.2 pIC50 (Q); system: CaV1.2 (Homo sapiens, UniProt Q13936); submitted item: CNCC[C@H](Oc1cccc2ccccc12)c1cccs1 [Duloxetine]
4.0
